# TARGET SYSTEM: GmolCSP8-L30A (Grapholita molesta, UniProt A0A0M4FML8, L45A)
# Sequence (A0A0M4FML8 entry or part of it L45A): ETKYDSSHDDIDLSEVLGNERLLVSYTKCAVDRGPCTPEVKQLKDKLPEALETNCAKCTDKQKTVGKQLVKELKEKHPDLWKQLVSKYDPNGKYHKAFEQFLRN
# ASSAY COMMENT: Titration of protein with fluorescent probe 1-NPN, mutant L30A
pKd: −log10 of the molar value.
MEASURED ENDPOINT: pKd

{"COMPOUND": "c1ccc(Nc2cccc3ccccc23)cc1 [1-NPN, N-phenyl-1-naphthylamine]", "RECORDED VALUE": 4.84}

---

# TARGET SYSTEM: GmolCSP8-V40A (Grapholita molesta, UniProt A0A0M4FML8, V55A)
# Sequence (A0A0M4FML8 entry or part of it V55A): as the sequence (A0A0M4FML8 entry or part of it L45A) above, with A30L, V40A counted along it
# ASSAY COMMENT: biochemical
# Type: binding
# MEASUREMENT PARAMETERS: mutant V40A; read-out: Ki (μM) V40A
MEASURED ENDPOINT: Ki

{"GIVEN SMILES": "CCCCO", "MEASURED ENDPOINT": "Ki", "RECORDED VALUE": "8.07 µM"}
